Reference for the values: PubChem BioAssay

Reported differentiation response values follow for various compounds
# experimentSummary: promoters of myeloid differentiation in arrested cells, primary screen, cell-based, GFP/MAC1 double positive, flow cytometry, validation set (AID 588685);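 note: compound exposure lasts four days before antibody staining and flow analysis; 0% = DMSO wells and 100% = 5 µM fulvestrant positive control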
# conditionSummary: ER-HoxA9 marrow cells, active compounds read high, normalized: vehicle 0, fulvestrant 100
Answer format: numeric, % implied, no suffix.

The compound listed as C=C(C)c1nc2cc(OC)c(OC)cc2c(=O)o1 shows differentiation response equal to 9.01

The compound listed as CO[C@@H]1O[C@@H]2COC(c3ccccc3)O[C@@H]2[C@@H](OC)[C@@H]1O (some centres undefined) shows differentiation response equal to -9.89

The compound listed as Oc1c(Cl)cc(Cl)c(Cl)c1Cc1c(O)c(Cl)cc(Cl)c1Cl shows differentiation response equal to 0.82

The compound listed as O=C(O)c1cccnc1 shows differentiation response equal to 20.8

The compound listed as CC1CNCCN1S(=O)(=O)c1cccc2cnccc12 (centres undefined) shows differentiation response equal to 14.9

The compound listed as CC(=O)N1N=C(c2cccs2)CC1c1ccc(C)o1 (centres undefined) shows differentiation response equal to -4.91

The compound listed as O=C(NCCc1nc2ccccc2[nH]1)c1cccc(Br)c1 shows differentiation response equal to 0.8

The compound listed as COc1cc(OC)c(C(=O)CCCN2CCCC2)c(OC)c1 shows differentiation response equal to -8.19

The compound listed as CO/N=C(\C(=O)N[C@@H]1C(=O)N2C(C(=O)O)=C(COC(C)=O)CS[C@H]12)c1csc(N)n1 (stereo in doubt) shows differentiation response equal to 6.26

The compound listed as COc1ccc2nc(NC(=O)Nc3ccccc3)sc2c1 shows differentiation response equal to -22.8

The compound listed as CC(=O)Oc1cc(C(C)C)c(OCCN(C)C)cc1C shows differentiation response equal to 19.2

The compound listed as CN(C)CCCNc1ncnc2c1cnn2-c1ccccc1 shows differentiation response equal to 23.2

The compound listed as COc1cccc(OC2OC3COC(C)(C)OC3C(O)C2NC(C)=O)c1 (centres undefined) shows differentiation response equal to -11.9
